- Tested on: Klebsiella pneumoniae
- measurement-conditions: Concentration 32 ug.mL-1;; ASSAY_TEST Inhibition of Bacterial Growth; detection method Absorption (OD600); MEDIA CAMHB; plate type 384well; NBS; CORNING #3640; time 18 hr
- Description: Antibacterial activity against Klebsiella pneumoniae MDR ATCC 70063 (CO-ADD:GN_003); MIC in CAMBH media using NBS plates, by OD(600)
Measured potencies and affinities stand elsewhere.
recorded-endpoint: Inhibition (%)

compound: Cc1cc2nn(CC(=O)Nc3ccccc3F)c(=O)n2c(Nc2ccc(F)c(C)c2)n1
recorded-endpoint: Inhibition
quantitative-result: 9.21
//
compound: CN(C(=O)Cn1nc2n(Cc3ccco3)c(=O)c3sccc3n2c1=O)c1ccccc1
recorded-endpoint: Inhibition
quantitative-result: -0.68
//
compound: CC(C)c1ccc(N(Cc2cccc(Cl)c2)S(=O)(=O)c2cccn3cnnc23)cc1
recorded-endpoint: Inhibition
quantitative-result: -3.32
//
compound: CCOc1ccc(C(=O)Cn2nc3n(Cc4ccccc4OC)c(=O)c4sccc4n3c2=O)cc1
recorded-endpoint: Inhibition
quantitative-result: 8.36
//
compound: O=C1CCCN1c1ccc(Cn2nc3ccc(-c4ccccc4)nn3c2=O)cc1
recorded-endpoint: Inhibition
quantitative-result: 10.51
//
compound: CCc1ccc(NC(=O)Cn2nc3ccc(SC4CCCCC4)nn3c2=O)cc1
recorded-endpoint: Inhibition
quantitative-result: 3.55
//
compound: Cc1cc(Br)ccc1NC(=O)Cn1nc2c(SC3CCCCC3)nccn2c1=O
recorded-endpoint: Inhibition
quantitative-result: 10.86
//
compound: O=C(Cn1nc2c3c4c(sc3ncn2c1=O)CCCC4)N1CCc2ccccc2C1
recorded-endpoint: Inhibition
quantitative-result: 9.79
//
compound: Cc1ccc(Sc2nccn3c(=O)n(CC(=O)Nc4cccc(Br)c4)nc23)c(C)c1
recorded-endpoint: Inhibition
quantitative-result: 7.97
//
compound: Cc1ccc(C)c(NC(=O)Cn2nc3c(Sc4ccccc4)nccn3c2=O)c1
recorded-endpoint: Inhibition
quantitative-result: 3.53
//
compound: N#Cc1cccc(Cn2nc3ccc(S(=O)(=O)N4CCCCCC4)cn3c2=O)c1
recorded-endpoint: Inhibition
quantitative-result: 8.88
//
compound: O=C(CSc1nc2ccccc2n2cnnc12)Nc1ccc2c(c1)OCO2
recorded-endpoint: Inhibition
quantitative-result: 0.58
//
compound: CCc1nnc2c(S(=O)(=O)N(Cc3cccc(F)c3)c3ccccc3)cccn12
recorded-endpoint: Inhibition
quantitative-result: 10.23
//
compound: CSc1cccc(NC(=O)Cn2nc3c(Sc4ccc(C)cc4C)nccn3c2=O)c1
recorded-endpoint: Inhibition
quantitative-result: -1.53
//
compound: CC(C)(C)Sc1ccc2nn(CC(=O)Nc3ccc(Cl)cc3)c(=O)n2n1
recorded-endpoint: Inhibition
quantitative-result: 16.93
//
compound: Cc1cc2nn(CC(=O)Nc3ccc(F)cc3C)c(=O)n2c(Nc2ccc(F)cc2)n1
recorded-endpoint: Inhibition
quantitative-result: 7.08
//
compound: Cc1c(Cl)cccc1NC(=O)Cn1nc2c(N3CCOCC3)nc3ccccc3n2c1=O
recorded-endpoint: Inhibition
quantitative-result: 9.14
//
compound: COc1cccc(-n2ccn3c(SCC(=O)N4CCN(c5ccc(F)cc5)CC4)nnc3c2=O)c1
recorded-endpoint: Inhibition
quantitative-result: 8.66
//
compound: CCOc1ccc(-n2ccn3c(SCC(=O)c4ccc(F)cc4)nnc3c2=O)cc1
recorded-endpoint: Inhibition
quantitative-result: 1.88
//
compound: CC(C)CCn1c(=O)c2sccc2n2c(=O)n(CC(N)=O)nc12
recorded-endpoint: Inhibition
quantitative-result: 10.09
//
compound: Cc1ccc(Oc2nccn3c(=O)n(CC(=O)NCCC4=CCCCC4)nc23)cc1
recorded-endpoint: Inhibition
quantitative-result: 12.14
//
compound: COc1cc(OC)c(NC(=O)Cn2nc3c(Oc4ccccc4)nccn3c2=O)cc1Cl
recorded-endpoint: Inhibition
quantitative-result: -10.94
//
compound: Cc1ccc(NC(=O)Cn2nc3c(N4CC(C)CC(C)C4)nccn3c2=O)c(F)c1 (stereo not given)
recorded-endpoint: Inhibition
quantitative-result: 10.72
//
compound: Cc1ccc(Cn2c(=O)c3ccc(C(=O)NC4CCCC4)cc3n3c(=O)n(CC#N)nc23)cc1
recorded-endpoint: Inhibition
quantitative-result: 8.48
//
compound: CCc1nnc2ccc(S(=O)(=O)N(Cc3ccccc3F)c3ccc(OC)cc3)cn12
recorded-endpoint: Inhibition
quantitative-result: 7.78
//
compound: COc1cc(NC(=O)CSc2nnc3c(=O)n(-c4ccccc4)ccn23)cc(OC)c1
recorded-endpoint: Inhibition
quantitative-result: 17.43
//
compound: Cc1oc(-c2ccccc2)nc1CSc1nc2ccccc2n2c(C)nnc12
recorded-endpoint: Inhibition
quantitative-result: 7.15
//
compound: CCN(C(=O)Cn1nc2cc(C)nc(Nc3ccc(C)c(F)c3)n2c1=O)c1ccccc1
recorded-endpoint: Inhibition
quantitative-result: 13.32
//
compound: COc1ccc(-c2cc3c4nn(CC(=O)Nc5cc(Cl)ccc5C)c(=O)n4ccn3n2)cc1
recorded-endpoint: Inhibition
quantitative-result: 1.98
//
compound: CCCCn1c(=O)c2sccc2n2c(=O)n(CC(=O)c3ccc(OC)c(OC)c3)nc12
recorded-endpoint: Inhibition
quantitative-result: 19.59
//
compound: CCc1ccccc1NC(=O)CSc1nnc2ccc(C(=O)Nc3cccc(F)c3)cn12
recorded-endpoint: Inhibition
quantitative-result: 6.52
//
compound: COC(=O)c1ccc(CN(c2cccc(F)c2)S(=O)(=O)c2ccc3nncn3c2)o1
recorded-endpoint: Inhibition
quantitative-result: 8.3
//
compound: COc1ccc(NC(=O)CSc2nnc3c(=O)n(-c4cccc(F)c4)ccn23)cc1OC
recorded-endpoint: Inhibition
quantitative-result: 7.43
//
compound: COc1ccc(CN(c2cc(C)cc(C)c2)S(=O)(=O)c2cccn3c(C)nnc23)cc1
recorded-endpoint: Inhibition
quantitative-result: -1.14
//
compound: COC(=O)c1ccccc1NC(=O)Cn1nc2c(Oc3ccccc3)nccn2c1=O
recorded-endpoint: Inhibition
quantitative-result: 8.23
//
compound: Cn1c(=O)c2ccc(C(=O)NC3CCCCC3)cc2n2c(=O)n(Cc3cccc(C(F)(F)F)c3)nc12
recorded-endpoint: Inhibition
quantitative-result: 16.04
//
compound: CCOc1ccc(-n2ccn3c(SCC(=O)c4ccccc4)nnc3c2=O)cc1
recorded-endpoint: Inhibition
quantitative-result: 1.87
//
compound: Cc1cc(NC(=O)Cn2nc3ccc(SC(C)(C)C)nn3c2=O)ccc1Br
recorded-endpoint: Inhibition
quantitative-result: 5.26
//
compound: COc1ccc(NC(=O)Cn2nc3ccc(SC(C)(C)C)nn3c2=O)cc1Cl
recorded-endpoint: Inhibition
quantitative-result: 12.99
//
compound: COc1cc(OC)c(NC(=O)Cn2nc3c(Sc4cccc(C)c4)nccn3c2=O)cc1Cl
recorded-endpoint: Inhibition
quantitative-result: 10.68
